Test system: gingival keratinocytes
testName: Induction of apoptosis in gingival keratinocytes
Format: cell-based
measurementSetup: 5 μM, gingival keratinocytes
measurementKind: live cells
Give bare numbers.

{"itemSmiles": "Fc1ccc(Nc2nc(Nc3ccc(F)cc3)nc(-c3cn(-c4cccc(-c5nc(-c6ccccc6)c(-c6ccccc6)o5)c4)nn3)n2)cc1", "measuredNumber": 89.25}
{"itemSmiles": "Fc1ccc(Nc2nc(Nc3ccc(F)cc3)nc(-c3cn(-c4ccc(-c5nc(-c6ccc(F)cc6)c(-c6ccc(F)cc6)o5)cc4)nn3)n2)cc1", "measuredNumber": 87.85}
{"itemSmiles": "Fc1ccc(Nc2nc(Nc3ccc(F)cc3)nc(-c3cn(-c4ccccc4-c4nc(-c5ccco5)c(-c5ccco5)o4)nn3)n2)cc1", "measuredNumber": 88.30}

Short answer please: live cells, gingival keratinocytes, entry CCN(CC)c1nc(-c2cn(-c3ccc(-c4nc(-c5ccc(Cl)cc5)c(-c5ccc(Cl)cc5)o4)cc3)nn2)nc(N(CC)CC)n1 88.50

* * *

Please respond with reported early apoptosis for every item in the list.
Test system: gingival keratinocytes
testName: Induction of apoptosis in gingival keratinocytes
Type: cell-based
measurementSetup: 5 μM, gingival keratinocytes

Each compound below has a reported value. Please supply its early apoptosis.
1. CCN(CC)c1nc(-c2cn(-c3ccc(-c4nc(-c5ccc(Cl)cc5)c(-c5ccc(Cl)cc5)o4)cc3)nn2)nc(N(CC)CC)n1
2. Fc1ccc(Nc2nc(Nc3ccc(F)cc3)nc(-c3cn(-c4ccc(-c5nc(-c6ccc(F)cc6)c(-c6ccc(F)cc6)o5)cc4)nn3)n2)cc1
3. Fc1ccc(Nc2nc(Nc3ccc(F)cc3)nc(-c3cn(-c4ccccc4-c4nc(-c5ccco5)c(-c5ccco5)o4)nn3)n2)cc1
4. Fc1ccc(Nc2nc(Nc3ccc(F)cc3)nc(-c3cn(-c4cccc(-c5nc(-c6ccccc6)c(-c6ccccc6)o5)c4)nn3)n2)cc1

1: 5.02; 2: 3.89; 3: 4.50; 4: 4.96

* * *

System: gingival keratinocytes
testName: Induction of apoptosis in gingival keratinocytes
Type: cell-based
measurementSetup: 20 μM, gingival keratinocytes
measurementKind: live cells
Numbers only.

{"itemSmiles": "Fc1ccc(Nc2nc(Nc3ccc(F)cc3)nc(-c3cn(-c4cccc(-c5nc(-c6ccccc6)c(-c6ccccc6)o5)c4)nn3)n2)cc1", "systemTested": "gingival keratinocytes", "measurementKind": "live cells", "measuredNumber": 87.95}
{"itemSmiles": "Fc1ccc(Nc2nc(Nc3ccc(F)cc3)nc(-c3cn(-c4ccccc4-c4nc(-c5ccco5)c(-c5ccco5)o4)nn3)n2)cc1", "systemTested": "gingival keratinocytes", "measurementKind": "live cells", "measuredNumber": 88.80}
{"itemSmiles": "Fc1ccc(Nc2nc(Nc3ccc(F)cc3)nc(-c3cn(-c4ccc(-c5nc(-c6ccc(F)cc6)c(-c6ccc(F)cc6)o5)cc4)nn3)n2)cc1", "systemTested": "gingival keratinocytes", "measurementKind": "live cells", "measuredNumber": 91.20}

Now let's try a different one.
Which measured live cells value corresponds to CCN(CC)c1nc(-c2cn(-c3ccc(-c4nc(-c5ccc(Cl)cc5)c(-c5ccc(Cl)cc5)o4)cc3)nn2)nc(N(CC)CC)n1 ? 88.35

* * *

Tested on: gingival keratinocytes
testName: Induction of apoptosis in gingival keratinocytes
Assay type: cell-based
measurementSetup: 20 μM, gingival keratinocytes
Please respond with reported early apoptosis for every item in the list.
One number for each entry.

{"itemSmiles": "Fc1ccc(Nc2nc(Nc3ccc(F)cc3)nc(-c3cn(-c4cccc(-c5nc(-c6ccccc6)c(-c6ccccc6)o5)c4)nn3)n2)cc1", "systemTested": "gingival keratinocytes", "early apoptosis": 5.06}
{"itemSmiles": "Fc1ccc(Nc2nc(Nc3ccc(F)cc3)nc(-c3cn(-c4ccccc4-c4nc(-c5ccco5)c(-c5ccco5)o4)nn3)n2)cc1", "systemTested": "gingival keratinocytes", "early apoptosis": 5.93}
{"itemSmiles": "CCN(CC)c1nc(-c2cn(-c3ccc(-c4nc(-c5ccc(Cl)cc5)c(-c5ccc(Cl)cc5)o4)cc3)nn2)nc(N(CC)CC)n1", "systemTested": "gingival keratinocytes", "early apoptosis": 4.89}

Which early apoptosis reading was recorded for the compound Fc1ccc(Nc2nc(Nc3ccc(F)cc3)nc(-c3cn(-c4ccc(-c5nc(-c6ccc(F)cc6)c(-c6ccc(F)cc6)o5)cc4)nn3)n2)cc1 ? 4.06

* * *

Test system: gingival keratinocytes
testName: Induction of apoptosis in gingival keratinocytes
Assay type: cell-based
measurementSetup: 5 μM, gingival keratinocytes
measurementKind: late apoptosis
Give bare numbers.

Look up late apoptosis for the entries below, preserving their order.
1. CCN(CC)c1nc(-c2cn(-c3ccc(-c4nc(-c5ccc(Cl)cc5)c(-c5ccc(Cl)cc5)o4)cc3)nn2)nc(N(CC)CC)n1 [Compound 95]
2. Fc1ccc(Nc2nc(Nc3ccc(F)cc3)nc(-c3cn(-c4ccccc4-c4nc(-c5ccco5)c(-c5ccco5)o4)nn3)n2)cc1 [Compound 122]
3. Fc1ccc(Nc2nc(Nc3ccc(F)cc3)nc(-c3cn(-c4cccc(-c5nc(-c6ccccc6)c(-c6ccccc6)o5)c4)nn3)n2)cc1 [Compound 111]

1: 4.27; 2: 3.95; 3: 2.36

Requested field: late apoptosis. Item: Fc1ccc(Nc2nc(Nc3ccc(F)cc3)nc(-c3cn(-c4ccc(-c5nc(-c6ccc(F)cc6)c(-c6ccc(F)cc6)o5)cc4)nn3)n2)cc1 [Compound 115] 4.21

* * *

Test system: gingival keratinocytes
testName: Induction of apoptosis in gingival keratinocytes
Assay type: cell-based
measurementSetup: 20 μM, gingival keratinocytes
measurementKind: late apoptosis
Give bare numbers.

Example cases with answers are listed next.
{"molecule": "CCN(CC)c1nc(-c2cn(-c3ccc(-c4nc(-c5ccc(Cl)cc5)c(-c5ccc(Cl)cc5)o4)cc3)nn2)nc(N(CC)CC)n1 [Compound 95]", "systemTested": "gingival keratinocytes", "late apoptosis": 4.26}
{"molecule": "Fc1ccc(Nc2nc(Nc3ccc(F)cc3)nc(-c3cn(-c4cccc(-c5nc(-c6ccccc6)c(-c6ccccc6)o5)c4)nn3)n2)cc1 [Compound 111]", "systemTested": "gingival keratinocytes", "late apoptosis": 3.39}
{"molecule": "Fc1ccc(Nc2nc(Nc3ccc(F)cc3)nc(-c3cn(-c4ccc(-c5nc(-c6ccc(F)cc6)c(-c6ccc(F)cc6)o5)cc4)nn3)n2)cc1 [Compound 115]", "systemTested": "gingival keratinocytes", "late apoptosis": 2.80}

# evaluate next
Which late apoptosis is reported with gingival keratinocytes for this entry: Fc1ccc(Nc2nc(Nc3ccc(F)cc3)nc(-c3cn(-c4ccccc4-c4nc(-c5ccco5)c(-c5ccco5)o4)nn3)n2)cc1 [Compound 122] ? 2.92
